Recorded values, source ChEMBL document CHEMBL1136501.

Recorded Ki values (Sodium-dependent serotonin transporter (Homo sapiens, UniProt P31645)) are given below.
Respond with the bare value in nM.

compound="CNCCC(Oc1cccc2ccccc12)c1ccc(OC)cc1 (stereo unspecified)" uom=nM assay_result=3.5

Kindly state the measured Ki obtained for CNCCC(Oc1cccc2ccccc12)c1cccc(OC)c1 (stereo unspecified) with Sodium-dependent serotonin transporter (Homo sapiens, UniProt P31645).
2.2

Kindly state the measured Ki obtained for CNCCCOc1cccc2ccccc12 with Sodium-dependent serotonin transporter (Homo sapiens, UniProt P31645).
75

Kindly state the measured Ki obtained for CNCCC(Oc1cccc2ccccc12)c1ccc(Br)cc1 (stereo unspecified) with Sodium-dependent serotonin transporter (Homo sapiens, UniProt P31645).
4.1

Kindly state the measured Ki obtained for CNCCC(Oc1cccc2ccccc12)c1nccs1 (stereo unspecified) with Sodium-dependent serotonin transporter (Homo sapiens, UniProt P31645).
6.4

Kindly state the measured Ki obtained for CNCCC(Oc1cccc2ccccc12)c1ccc(C(F)(F)F)cc1 (stereo unspecified) with Sodium-dependent serotonin transporter (Homo sapiens, UniProt P31645).
14.5

---

target_under_test: Sodium-dependent noradrenaline transporter (Homo sapiens)
Sequence (P23975 whole entry): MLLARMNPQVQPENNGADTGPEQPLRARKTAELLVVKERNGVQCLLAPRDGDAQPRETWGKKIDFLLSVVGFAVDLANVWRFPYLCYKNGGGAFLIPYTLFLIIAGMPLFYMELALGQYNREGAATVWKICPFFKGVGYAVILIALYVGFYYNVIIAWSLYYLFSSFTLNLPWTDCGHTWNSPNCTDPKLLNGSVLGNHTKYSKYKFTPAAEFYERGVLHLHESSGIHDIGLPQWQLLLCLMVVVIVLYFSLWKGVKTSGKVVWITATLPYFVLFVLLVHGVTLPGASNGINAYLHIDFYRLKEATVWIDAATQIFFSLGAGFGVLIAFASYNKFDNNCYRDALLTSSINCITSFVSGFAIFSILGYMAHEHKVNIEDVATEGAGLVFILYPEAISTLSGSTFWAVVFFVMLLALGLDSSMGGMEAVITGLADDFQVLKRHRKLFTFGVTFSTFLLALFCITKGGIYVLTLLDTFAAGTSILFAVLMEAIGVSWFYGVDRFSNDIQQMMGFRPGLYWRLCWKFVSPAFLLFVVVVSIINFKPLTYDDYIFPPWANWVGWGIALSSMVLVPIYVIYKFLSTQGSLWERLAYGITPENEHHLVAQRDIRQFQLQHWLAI
assay_info: Inhibition of [3H]nisoxetine binding to norepinephrine transporter
assay_setup: concentration not given here
measure_name: inhibition (%)
Respond with the bare value in %.

Look over these answered cases.
molecule=CNCCCOc1cccc2ccccc12 uom=% assay_result=25
molecule=CNCCCCCOc1cccc2ccccc12 uom=% assay_result=23
molecule="CNCCC(Oc1cccc2ccccc12)c1ccccc1OC (centres undefined)" uom=% assay_result=56
molecule="CNCCC(Oc1cccc2ccccc12)c1ccccc1C(F)(F)F (centres undefined)" uom=% assay_result=38
molecule=CNCCOc1cccc2ccccc12 uom=% assay_result=17
molecule=CNCCCCOc1cccc2ccccc12 uom=% assay_result=25.5
molecule=CNCCCCOc1ccc2ccccc2c1 uom=% assay_result=17
molecule="CNCCC(Oc1cccc2ccccc12)c1ccc(C(F)(F)F)cc1 (centres undefined)" uom=% assay_result=55

Moving on to the next molecule.
GET /values?readout=inhibition&item= CNCCCOc1ccc2ccccc2c1
39

---

target_under_test: Sodium-dependent noradrenaline transporter (Homo sapiens)
Below, each entry is listed with its recorded pKi.
Just the number, please; pKi means minus log10 of the concentration in mol/L.

Look over these answered cases.
molecule="CNCCC(Oc1cccc2ccccc12)c1ccc(Cl)cc1 (configuration not stated)" assay_result=7.11
molecule="CNCCC(Oc1cccc2ccccc12)c1ccc(OC)cc1 (configuration not stated)" assay_result=7.13
molecule="CNCCC(Oc1cccc2ccccc12)c1cccc(Br)c1 (configuration not stated)" assay_result=7.17

Moving on to the next molecule.
Kindly state the measured pKi obtained for CNCCC(Oc1cccc2ccccc12)c1ccco1 (configuration not stated) with Sodium-dependent noradrenaline transporter (Homo sapiens).
7.70

---

Organism: Rattus norvegicus
measure_name: Ki (nM)
Respond with the bare value in nM.

GET /values?readout=Ki&item= CNCC[C@@H](Oc1ccccc1C)c1ccccc1
4

---

Species: Rattus norvegicus
measure_name: pKi
Just the number, please; pKi means minus log10 of the concentration in mol/L.

GET /values?readout=pKi&item= CNCC[C@@H](Oc1ccccc1C)c1ccccc1 [ATOMOXETINE]
5.82

---

Below, each entry is listed with its recorded inhibition.
target_under_test: Sodium-dependent serotonin transporter (Homo sapiens, UniProt P31645)
assay_info: Binding affinity at serotonin transporter, using [3H]citalopram as radioligand at a concentration of 0.1 uM
Sequence (P31645 whole entry, looked up): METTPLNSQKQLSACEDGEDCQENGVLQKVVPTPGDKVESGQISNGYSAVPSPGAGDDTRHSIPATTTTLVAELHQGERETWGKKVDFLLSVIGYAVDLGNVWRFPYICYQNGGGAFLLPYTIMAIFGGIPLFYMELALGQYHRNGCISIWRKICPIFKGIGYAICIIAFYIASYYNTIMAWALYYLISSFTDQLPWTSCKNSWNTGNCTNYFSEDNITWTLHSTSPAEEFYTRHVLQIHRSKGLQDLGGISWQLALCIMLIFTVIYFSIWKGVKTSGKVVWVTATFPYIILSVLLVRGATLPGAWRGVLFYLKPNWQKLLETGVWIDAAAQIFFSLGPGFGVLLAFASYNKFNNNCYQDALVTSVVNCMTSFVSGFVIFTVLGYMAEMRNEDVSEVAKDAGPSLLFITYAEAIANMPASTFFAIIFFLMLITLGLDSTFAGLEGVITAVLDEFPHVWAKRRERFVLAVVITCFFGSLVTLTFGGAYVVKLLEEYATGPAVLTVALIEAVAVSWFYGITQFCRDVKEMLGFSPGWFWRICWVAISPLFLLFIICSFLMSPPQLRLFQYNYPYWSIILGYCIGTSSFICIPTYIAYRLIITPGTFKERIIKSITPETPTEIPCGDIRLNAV

Look over these answered cases.
structure_string=CNCCCCOc1ccc2ccccc2c1 assay_result=32%
structure_string=CNCCCCCOc1cccc2ccccc12 assay_result=35.5%
structure_string=CNCCCOc1ccc2ccccc2c1 assay_result=23%

GET /values?readout=inhibition&item= CNCCOc1cccc2ccccc12
2%

---

Recorded Ki values (Sodium-dependent noradrenaline transporter (Homo sapiens)) are given below.
Number first, unit second: that is the form wanted.

Look over these answered cases.
compound="CNCCC(Oc1cccc2ccccc12)c1ccccc1 (stereo not drawn)" measure_name=Ki assay_result="20 nM"
compound="CNCCC(Oc1cccc2ccccc12)c1ccsc1 (stereo not drawn)" measure_name=Ki assay_result="21 nM"

Kindly state the measured Ki obtained for CNCCC(Oc1cccc2ccccc12)c1nccs1 (stereo not drawn) with Sodium-dependent noradrenaline transporter (Homo sapiens).
55 nM
